Tested on: KARPAS-299
TEST_METHOD_NOTES: cells
Assay type: functional, cell-based, Homo sapiens
DETAILS: Homo sapiens, KARPAS-299
Description: SANGER: Inhibition of human KARPAS-299 cell growth in a cell viability assay.
Documented pIC50 across a set of compounds
The scale used: pIC50 is minus the common logarithm of the concentration in molar units.

INPUT_SMILES	pIC50
OCCCNc1cc(-c2ccnc(Nc3cccc(Cl)c3)n2)ccn1	7.54
Nc1ccn([C@@H]2O[C@H](CO)[C@@H](O)C2(F)F)c(=O)n1	6.60

# input for lookup
Field pIC50 (entry "CCN(CC)CCNC(=O)c1c(C)[nH]c(/C=C2\C(=O)Nc3ccc(F)cc32)c1C" ) reads 5.68
